The entries below are paired with their reported self-cleavage.
B1: Osa-1-4 twister ribozyme (parent)
chain: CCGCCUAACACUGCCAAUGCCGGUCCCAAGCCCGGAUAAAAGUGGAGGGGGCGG

variants of: B1; assay: self-cleavage, relative activity (ratio to wild type); higher = more cleavage; co-transcriptional
Kindly provide the number alone.

// worked examples, self-cleavage included
mutation_id: A41U G51A
experimental_value: 0.59
//
mutation_id: C20A C26U
experimental_value: 0.87
//
mutation_id: A7U G30C
experimental_value: 0.02

Identify self-cleavage associated with the variant A39G C31G
0.1

Return reported self-cleavage. Input variant: A28G C33U
0.11

# return recorded self-cleavage for entry A8C G47C
0.03

Return reported self-cleavage. Input variant: A17C G35C
0.45

Provide self-cleavage value for the following variant: G44A U18G
0.63
